# System: GM-CSF induced STAT5 phosphorylation mediated by the JAK2/JAK2 homdimeric complex
# Assay method text: GM-CSF Induced pSTAT5 in Human PBMC
# Experimental parameters: Homo sapiens, PBMC, 20 min, read-out: PBMC_GMCSF_pSTAT5 IC50, human PBMC; GM-CSF 5 ng/mL for 20 minutes; pSTAT5
Quantity kind: IC50

CNc1cc(Nc2cc(Cl)cn(-c3cnn(C4CC4)c3C)c2=O)nc2c(C(=O)N[C@H]3C[C@H]3F)cnn12 [I-326] : > 50 µM

I need IC50 for every entry listed below, if you could help.
1. CNc1cc(Nc2cc(Cl)cn(C3CCOCC3)c2=O)nc2c(C(=O)N[C@H]3CC[C@@H]3O)cnn12 [I-712]
2. CNc1cc(Nc2cc(Cl)cn(C3CCN(C)CC3)c2=O)nc2c(C(=O)NC3CC3)cnn12 [I-883]
3. CNc1cc(-c2cn(C3CC3)c3ncccc23)nc2c(C(=O)N[C@H]3CC[C@H]3O)cnn12 [I-992]

> 12.5 µM
> 12.5 µM
> 50 µM
